# tested.target: T1, human CD70 expressed on the cell surface of tumor cell lines (human, UniProt P32970 1-193); also: time not given here
# T1 sequence (looked up): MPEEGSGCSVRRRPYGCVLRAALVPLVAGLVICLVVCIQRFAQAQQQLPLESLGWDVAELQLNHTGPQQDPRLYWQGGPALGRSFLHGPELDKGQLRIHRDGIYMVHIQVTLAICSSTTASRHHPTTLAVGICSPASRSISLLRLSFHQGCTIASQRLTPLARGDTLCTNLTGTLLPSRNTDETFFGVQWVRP
# protocol.details: cell-based or functional assay
measurement.label: Internalization rate (%) on Caki-1
# output: bare number, implied unit %

Field: example entries. Status: answers known.
binder: 2A4P0L1, full IgG (antibody, V domains shown) VH: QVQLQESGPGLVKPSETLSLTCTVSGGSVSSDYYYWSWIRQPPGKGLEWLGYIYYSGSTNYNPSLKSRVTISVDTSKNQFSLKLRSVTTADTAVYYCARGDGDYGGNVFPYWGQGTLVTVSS VL: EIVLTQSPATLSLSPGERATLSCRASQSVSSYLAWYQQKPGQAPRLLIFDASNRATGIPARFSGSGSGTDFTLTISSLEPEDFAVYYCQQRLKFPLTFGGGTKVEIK
measurement.label: Internalization rate (%) on Caki-1
meas.value: 22

binder: 2A4, full IgG (antibody, V domains shown) VH: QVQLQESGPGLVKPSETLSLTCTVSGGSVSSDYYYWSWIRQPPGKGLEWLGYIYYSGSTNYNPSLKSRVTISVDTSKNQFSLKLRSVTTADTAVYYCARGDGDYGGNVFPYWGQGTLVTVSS VL: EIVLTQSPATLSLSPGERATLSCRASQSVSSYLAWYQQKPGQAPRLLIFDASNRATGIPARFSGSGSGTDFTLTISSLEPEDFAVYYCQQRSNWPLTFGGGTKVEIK
measurement.label: Internalization rate (%) on Caki-1
meas.value: 20

binder: 2D2, full IgG (antibody, V domains shown) VH: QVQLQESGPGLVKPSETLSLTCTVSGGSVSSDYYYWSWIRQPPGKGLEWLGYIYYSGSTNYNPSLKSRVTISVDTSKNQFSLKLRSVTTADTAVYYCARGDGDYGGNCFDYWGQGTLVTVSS VL: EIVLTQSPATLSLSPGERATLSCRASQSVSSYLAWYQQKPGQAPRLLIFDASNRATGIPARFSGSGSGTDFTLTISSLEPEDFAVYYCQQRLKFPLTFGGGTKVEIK
measurement.label: Internalization rate (%) on Caki-1
meas.value: 53

In: Give the measured Internalization rate (%) on Caki-1 for 1H8, full IgG (antibody, V domains shown) VH: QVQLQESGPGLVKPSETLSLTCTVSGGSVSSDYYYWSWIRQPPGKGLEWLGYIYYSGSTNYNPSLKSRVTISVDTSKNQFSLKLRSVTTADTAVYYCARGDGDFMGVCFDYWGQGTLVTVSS VL: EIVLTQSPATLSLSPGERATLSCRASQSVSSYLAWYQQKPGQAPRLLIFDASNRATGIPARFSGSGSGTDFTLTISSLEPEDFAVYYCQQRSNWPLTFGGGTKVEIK
Out: 62
